# measurement-target: constitutive NO synthase (Rattus norvegicus)
# method-description: biochemical
metric: IC50

Measured IC50 of N=C(N)NN : > 300 µM

----------
# measurement-target: constitutive NO synthase (Rattus norvegicus, UniProt P29476)
# method-description: biochemical
# test-conditions: read-out: IC50 Constitutive NO synthase (formation of citrulline); rat cerebellum homogenate, pH 7.4, 15 min
# Protocol: 1) In vitro effect of constitutive NO synthase on the rat cerebellum The test consists in measuring the conversion, by NO synthase, of L-arginine to L-citrulline. […] After passing samples over a column of 1 ml of DOWEX resin, the radioactivity is quantified by a liquid scintillation spectrometer. […]
metric: IC50

Considering CC(C)(C)c1cc(C(=O)O)cc(C(C)(C)C)c1O.N=C(N)NN [Example 1 AB] , its IC50 with constitutive NO synthase (Rattus norvegicus, UniProt P29476) was recorded as > 300 µM
